- experimental target: human factor XIa (Homo sapiens (Human), UniProt P03951)
- Sequence (P03951 388-625): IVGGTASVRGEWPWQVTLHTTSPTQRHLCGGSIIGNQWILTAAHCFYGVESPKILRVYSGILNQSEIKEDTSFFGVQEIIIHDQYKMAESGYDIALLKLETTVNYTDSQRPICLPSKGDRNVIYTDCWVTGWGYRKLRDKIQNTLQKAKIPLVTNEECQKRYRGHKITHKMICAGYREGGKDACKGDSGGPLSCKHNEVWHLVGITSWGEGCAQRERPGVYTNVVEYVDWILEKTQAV
- Sequence (P03951 19-387 partner): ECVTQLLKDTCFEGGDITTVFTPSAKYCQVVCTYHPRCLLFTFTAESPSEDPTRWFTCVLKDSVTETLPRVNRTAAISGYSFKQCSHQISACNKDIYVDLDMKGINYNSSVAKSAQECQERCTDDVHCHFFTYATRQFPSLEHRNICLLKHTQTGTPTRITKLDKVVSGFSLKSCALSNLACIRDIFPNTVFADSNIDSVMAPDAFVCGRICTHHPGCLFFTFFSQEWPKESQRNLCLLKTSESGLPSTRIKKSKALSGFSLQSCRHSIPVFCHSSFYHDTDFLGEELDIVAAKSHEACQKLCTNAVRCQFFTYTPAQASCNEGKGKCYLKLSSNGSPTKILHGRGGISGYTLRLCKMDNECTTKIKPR
pIC50: −log10 of the molar value. Counter-ions that a name gives are not always drawn.
// reported pIC50 per item

# compound, pIC50
data = [
    ("COc1cn(C(C(=O)Nc2ccn3ncc(C(N)=O)c3c2)C(C)CCCN)c(=O)cc1-c1cc(Cl)ccc1C#N (racemic) [Example 1]", "< 5.00"),
    ("COc1cn([C@H](C(=O)Nc2ccn3ncc(C(N)=O)c3c2)C(C)CCCN)c(=O)cc1-c1cc(Cl)ccc1C#N (single isomer, unassigned) [Example 3, trifluoroacetate]", "< 5.70"),
    ("COc1cn([C@H](C(=O)Nc2ccn3ncc(C(N)=O)c3c2)C(C)CCCN)c(=O)cc1-c1cc(Cl)ccc1C#N (single isomer, unassigned) [Example 2, trifluoroacetate]", "< 5.70"),
]

From: patent US11884660B2
